MAPK14 (UniProt Q16539) data, read-out IC50
Sequence (Q16539 whole entry, looked up): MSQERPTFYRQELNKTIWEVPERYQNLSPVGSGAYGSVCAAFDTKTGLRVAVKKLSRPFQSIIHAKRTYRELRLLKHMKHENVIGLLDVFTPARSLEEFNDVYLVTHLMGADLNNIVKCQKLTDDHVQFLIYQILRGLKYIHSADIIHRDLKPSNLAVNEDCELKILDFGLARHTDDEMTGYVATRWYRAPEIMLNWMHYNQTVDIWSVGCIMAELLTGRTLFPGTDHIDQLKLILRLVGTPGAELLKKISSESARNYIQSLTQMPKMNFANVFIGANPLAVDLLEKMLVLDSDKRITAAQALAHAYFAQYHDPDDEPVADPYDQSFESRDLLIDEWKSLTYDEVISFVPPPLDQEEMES

COMPOUND_SMILES | IC50
Fc1ccc(-c2[nH]c(-c3ccc(Cl)cc3)cc2-c2ccccn2)cc1 | > 10000 nM
Fc1ccc(-c2[nH]c(-c3ccc(Br)cc3)cc2-c2ccncc2)cc1 | 100 nM
CC(C)(C)Oc1ccc(-c2[nH]c(-c3ccccc3)cc2-c2ccncc2)cc1 | > 1000 nM
CCOC(=O)c1ccc(-c2[nH]c(-c3ccccc3)cc2-c2ccncc2)cc1 | > 10000 nM
